Form field: Unfractionated Heparin Neutralized (one value per entry).
system: anti-Factor Xa Activity of Unfractionated Heparin; test: Anti-Factor Xa assay: neutralization of unfractionated heparin in citrate or plasma in vitro; format: biochemical, human; conditions: 6 μg/ml Peptide; Citrate; UFH 0.7 U/ml
Ends that are not written are not given here.

substance | Unfractionated Heparin Neutralized
VLVL(ARKKAAKA)3ARKKCAKA (VLVLARKKAAKAARKKAAKAARKKAAKAARKKCAKA; Fragment) | 0.597 ± 0.034 U/ml
ARKKAAKAARKKAAKAARKKAAKAARKKAAKA [(ARKKAAKA)4] | 0.423 ± 0.014 U/ml

Prompt line: What measured Unfractionated Heparin Neutralized goes with ARKKAAKAAAAAAAAAAAAAAAAAARKKAAKA [ARKKAAKA(A16)ARKKAAKA, reference compound] ?
Response line: 0.064 ± 0.020 U/ml

Prompt line: What measured Unfractionated Heparin Neutralized goes with ARKKAAKAARKKAAKAARKKAAKAVLVLVLVL [(ARKKAAKA)3VLVLVLVL] ?
Response line: 0.651 ± 0.084 U/ml

Prompt line: What measured Unfractionated Heparin Neutralized goes with ARKKAAKAARKKAAKAARKKAAKAVLVLVL [(ARKKAAKA)3VLVLVL] ?
Response line: 0.576 ± 0.060 U/ml

Data credit: patent US7259140B2
